pKi: recorded values
- Study system: MMP-2 (Homo sapiens, UniProt P08253)
- Construct: made in house; host or cells: MMP-2-transfected p2AHT2 cells
- Sequence (P08253 110-660): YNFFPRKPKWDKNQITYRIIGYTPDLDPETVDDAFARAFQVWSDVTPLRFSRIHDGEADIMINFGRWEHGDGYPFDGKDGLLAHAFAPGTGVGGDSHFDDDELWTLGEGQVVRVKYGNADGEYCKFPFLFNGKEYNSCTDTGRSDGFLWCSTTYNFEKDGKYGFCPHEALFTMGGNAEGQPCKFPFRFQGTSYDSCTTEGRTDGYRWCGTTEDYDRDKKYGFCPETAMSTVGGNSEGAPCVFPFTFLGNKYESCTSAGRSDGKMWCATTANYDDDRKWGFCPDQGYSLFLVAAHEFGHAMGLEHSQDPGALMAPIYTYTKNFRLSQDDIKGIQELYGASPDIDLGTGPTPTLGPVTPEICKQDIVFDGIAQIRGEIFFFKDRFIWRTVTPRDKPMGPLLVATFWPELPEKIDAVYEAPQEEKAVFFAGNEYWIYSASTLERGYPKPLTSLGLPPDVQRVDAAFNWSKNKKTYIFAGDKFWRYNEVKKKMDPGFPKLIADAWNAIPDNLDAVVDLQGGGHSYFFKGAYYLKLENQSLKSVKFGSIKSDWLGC
- Test method notes: In vitro MMP inhibition, Ki determination (fluorogenic substrate II)
- Format: biochemical
- Test conditions: human recombinant enzyme; 4 μM substrate II; room temperature, 1 hr; read-out: MMP-2 Ki
- Description: Several hydroxamic acids and salts thereof were analyzed in in vitro assays to determine their ability to inhibit the MMP cleavage of peptide substrates. […] and IC50 constants were calculated from the assayed hydroxamic acid-MMP interactions. […] The assays from which the Ki determinations were made were performed as follows. […] In the absence of MMP inhibitory activity, substrate II was cleaved at the Gly-Leu bond resulting in an increase of relative fluorescence. […]
pKi: −log10 of the molar value. Counter-ions that a name gives are not always drawn.
Quantity: pKi

# Compound, Quantity, Reported
measured = [
    ("CCCCOc1ccc(N2CCN(S(=O)(=O)C3(C(=O)NO)CCN(CCOC)CC3)CC2)cc1F [Example 11, Dihydrochloride]", "pKi", 9.15),
    ("CCCCOc1ccc(C2CCN(S(=O)(=O)C3(C(=O)NO)CCN(CCOC)CC3)CC2)cc1 [Example 16, Hydrochloride]", "pKi", 8.91),
    ("COCCN1CCC(C(=O)NO)(S(=O)(=O)N2CCC(c3ccc(OCCCC(F)(F)F)cc3)CC2)CC1 [Example 20, Hydrochloride]", "pKi", 9.08),
    ("CCCCc1cnc(N2CCN(S(=O)(=O)C3(C(=O)NO)CCOCC3)CC2)cn1 [Example 1, Dihydrochloride]", "pKi", 8.82),
    ("O=C(NO)C1(S(=O)(=O)N2CCC(c3cnc(OCC(F)(F)C(F)(F)F)cn3)CC2)CCOCC1", "pKi", 9.23),
]

The values you see were collected from patent US20050209278A1.
